These data points were gathered from patent US20240115557A1.

biological target: SaCas9 (Staphylococcus aureus, UniProt J7RUA5); assay: Strand displacement assay, SaCas9 primary screen; format: biochemical; conditions: SaCas9 primary screen, Auto Zscore, replicate 1
Sequence (J7RUA5 whole entry): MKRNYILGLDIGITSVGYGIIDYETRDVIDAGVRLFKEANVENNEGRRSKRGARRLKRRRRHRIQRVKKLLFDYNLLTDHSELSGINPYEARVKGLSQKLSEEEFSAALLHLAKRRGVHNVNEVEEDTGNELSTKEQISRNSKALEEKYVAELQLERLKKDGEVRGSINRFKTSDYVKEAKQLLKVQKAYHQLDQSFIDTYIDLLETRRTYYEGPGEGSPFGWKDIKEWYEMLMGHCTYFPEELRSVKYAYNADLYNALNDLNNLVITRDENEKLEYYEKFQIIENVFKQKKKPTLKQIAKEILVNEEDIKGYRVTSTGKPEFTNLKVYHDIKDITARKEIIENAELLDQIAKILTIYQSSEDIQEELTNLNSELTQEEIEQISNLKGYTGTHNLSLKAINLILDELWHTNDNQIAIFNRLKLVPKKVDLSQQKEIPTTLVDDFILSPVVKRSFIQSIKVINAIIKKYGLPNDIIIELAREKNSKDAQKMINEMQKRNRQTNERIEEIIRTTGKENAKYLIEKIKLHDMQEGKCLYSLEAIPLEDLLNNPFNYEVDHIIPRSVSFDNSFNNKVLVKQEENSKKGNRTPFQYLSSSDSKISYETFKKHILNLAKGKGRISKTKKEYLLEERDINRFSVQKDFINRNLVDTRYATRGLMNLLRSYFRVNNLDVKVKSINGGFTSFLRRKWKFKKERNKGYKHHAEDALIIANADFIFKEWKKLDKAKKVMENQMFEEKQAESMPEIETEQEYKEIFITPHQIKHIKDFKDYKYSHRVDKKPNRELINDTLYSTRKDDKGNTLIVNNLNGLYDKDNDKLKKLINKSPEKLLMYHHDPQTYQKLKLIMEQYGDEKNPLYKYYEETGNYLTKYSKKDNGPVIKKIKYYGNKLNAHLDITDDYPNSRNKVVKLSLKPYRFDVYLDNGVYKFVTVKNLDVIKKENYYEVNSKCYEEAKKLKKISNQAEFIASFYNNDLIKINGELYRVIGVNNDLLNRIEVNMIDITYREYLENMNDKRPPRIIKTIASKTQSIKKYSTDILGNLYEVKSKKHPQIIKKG
property: Auto Zscore Rep 1
Note: the reply should be a number with no unit written.

Requested read-out: Auto Zscore Rep 1. Entry: `CCN(Cc1ccccc1)c1ncc(NS(=O)(=O)c2c(C)cc(C)cc2C)cc1C(=O)O`
0.3791

Requested read-out: Auto Zscore Rep 1. Entry: `Fc1ccc(OCc2nn3c(-c4ccccn4)nnc3s2)cc1`
0.9393

Requested read-out: Auto Zscore Rep 1. Entry: `COCCc1nnc2n1N=C(c1ccc(Cl)cc1)CS2`
−0.6224

Requested read-out: Auto Zscore Rep 1. Entry: `Brc1ccc(OCc2nn3c(-c4ccccn4)nnc3s2)cc1`
1.021

Requested read-out: Auto Zscore Rep 1. Entry: `CCN(Cc1ccccc1)c1ncc(NS(=O)(=O)c2ccc(F)cc2)cc1C(=O)O`
0.4484
